# System: Plasmodium falciparum
# assayInfo: GSK_TCMDC: Inhibition of Plasmodium falciparum 3D7 in whole red blood cells, using parasite LDH activity as an index of growth. Test compounds present at 2uM
# Format: functional
Catalogue of Inhibition readings, one per entry.
The response must be a number in % with no trailing unit.

1) COc1ccc(CN2CCCN(Cc3cccc(NC(=O)c4ccc5ccccc5c4)c3)CC2)cc1.O=C(O)C(F)(F)F; 93
2) CN(C)c1ccc(-c2csc(C(=O)NCC3CCN(Cc4cccc(C(F)(F)F)c4)C3)c2)cc1.O=C(O)C(F)(F)F (centres undefined); 97
3) O=C(Nc1ccc(N2CCCN(Cc3cccc(F)c3)CC2)cc1)c1ccc(F)cc1.O=C(O)C(F)(F)F; 96
4) O=C(O)C(F)(F)F.O=S(=O)(NCCN1CCCC1)c1cccc(-c2cccc(CNCc3ccc(F)cc3)c2)c1; 99
5) CCNc1cc(C)nc(Nc2ccc(NC(=O)c3c(F)cccc3Cl)cc2)n1; 100

Input: Would you mind telling me what Inhibition value was observed for `Fc1ccc2[nH]c(-c3cccc(-c4ccc(CNCCc5ccncc5)cc4)c3)nc2c1.O=C(O)C(F)(F)F` ?
Output: 99

Input: Please give the result for `CC(C)(CNCc1cccc(Oc2cccc(C(F)(F)F)c2)c1)c1nc(-c2ccnc(N)n2)c(-c2ccc(Cl)c(O)c2)[nH]1.Cl` too.
Output: 99

Input: Could you do the same for `CCc1nonc1NC(=O)c1oc2c(C)c(C)ccc2c1C` , please?
Output: 89

Input: Could you do the same for CC(C)[C@H](NC(=O)c1ccc(O)c(-c2cccc(C(F)(F)F)c2)c1)C(=O)NC1CCCc2ccccc21 (some centres undefined) , please?
Output: 82
